# Test system: E. faecalis VRE 53
# protocol.details: MIC, broth microdilution, vancomycin-resistant E. faecalis VRE 53 (VanA)
# Assay type: cell-based, Enterococcus faecalis
# measurement.parameters: VRE 53; ratio of MIC of vancomycin and MIC of analogue
measured.property: MIC-fold improvement vs. vancomycin

I am curious: what MIC-fold improvement vs. vancomycin value has been reported for CN[C@H](CC(C)C)C(=O)N[C@H]1C(=O)N[C@@H](CC(N)=O)C(=O)N[C@H]2C(=O)N[C@H]3C(=O)N[C@H](C(=O)N[C@H](C(=O)NCC(=O)Nc4cc(OC)cc(OC)c4)c4cc(O)cc(O)c4-c4cc3ccc4O)[C@H](O)c3ccc(c(Cl)c3)Oc3cc2cc(c3O[C@@H]2O[C@H](CO)[C@@H](O)[C@H](O)[C@H]2O[C@H]2C[C@](C)(N)[C@H](O)[C@H](C)O2)Oc2ccc(cc2Cl)[C@H]1O ?
16

Entry to check: CCCCC#Cc1ccc(NC(=O)CNC(=O)[C@H]2NC(=O)[C@H]3NC(=O)[C@H](NC(=O)[C@@H]4NC(=O)[C@H](CC(N)=O)NC(=O)[C@H](NC(=O)[C@@H](CC(C)C)NC)[C@H](O)c5ccc(c(Cl)c5)Oc5cc4cc(c5O[C@@H]4O[C@H](CO)[C@@H](O)[C@H](O)[C@H]4O[C@H]4C[C@](C)(N)[C@H](O)[C@H](C)O4)Oc4ccc(cc4Cl)[C@H]3O)c3ccc(O)c(c3)-c3c(O)cc(O)cc32)cc1
128

----------
# Test system: human T-lymphocyte (CEM) cells
# protocol.details: Cytostatic activity, CEM cell proliferation
# Type: cell-based
# measurement.parameters: mean ± SD of three experiments; highest concentration tested 250 µM; 3 days; read-out: Toxicity (IC50) CEM
# Protocol: Murine leukemia (L1210), human T-lymphocyte (CEM) and the human cervix carcinoma (HeLa) cell line were suspended at 300,000–500,000 cells/mL of culture medium, and 100 μL of a cell suspension was added to 100 μL of an appropriate dilution of the test compounds in wells of 96-well microtiter plates. After incubation at 37°C for 2 (L1210), 3 (CEM), or 4 (HeLa) days, the cell number was determined using a Coulter counter. […]
measured.property: pIC50
By convention, pIC50 is the negative base-10 log of a molar concentration.

I am curious: what pIC50 value has been reported for CN[C@H](CC(C)C)C(=O)N[C@H]1C(=O)N[C@@H](CC(N)=O)C(=O)N[C@H]2C(=O)N[C@H]3C(=O)N[C@H](C(=O)N[C@H](C(=O)NCC(=O)Nc4ccc(C#Cc5ccccc5)cc4)c4cc(O)cc(O)c4-c4cc3ccc4O)[C@H](O)c3ccc(c(Cl)c3)Oc3cc2cc(c3O[C@@H]2O[C@H](CO)[C@@H](O)[C@H](O)[C@H]2O[C@H]2C[C@](C)(N)[C@H](O)[C@H](C)O2)Oc2ccc(cc2Cl)[C@H]1O ?
5.36

----------
For each record, write down the corresponding pIC50.
# Tested on: L1210, CEM and HeLa cell lines
# protocol.details: Cytostatic activity, average or summary over L1210, CEM and HeLa
# Assay type: cell-based
# measurement.parameters: average of L1210, CEM and HeLa; read-out: Toxicity (IC50) Average
# Protocol: Murine leukemia (L1210), human T-lymphocyte (CEM) and the human cervix carcinoma (HeLa) cell line were suspended at 300,000–500,000 cells/mL of culture medium, and 100 μL of a cell suspension was added to 100 μL of an appropriate dilution of the test compounds in wells of 96-well microtiter plates. After incubation at 37°C for 2 (L1210), 3 (CEM), or 4 (HeLa) days, the cell number was determined using a Coulter counter. […]
By convention, pIC50 is the negative base-10 log of a molar concentration.

I am curious: what pIC50 value has been reported for CN[C@H](CC(C)C)C(=O)N[C@H]1C(=O)N[C@@H](CC(N)=O)C(=O)N[C@H]2C(=O)N[C@H]3C(=O)N[C@H](C(=O)N[C@H](C(=O)NCC(=O)Nc4ccc(Cl)cn4)c4cc(O)cc(O)c4-c4cc3ccc4O)[C@H](O)c3ccc(c(Cl)c3)Oc3cc2cc(c3O[C@@H]2O[C@H](CO)[C@@H](O)[C@H](O)[C@H]2O[C@H]2C[C@](C)(N)[C@H](O)[C@H](C)O2)Oc2ccc(cc2Cl)[C@H]1O ?
3.69

Entry to check: CN[C@H](CC(C)C)C(=O)N[C@H]1C(=O)N[C@@H](CC(N)=O)C(=O)N[C@H]2C(=O)N[C@H]3C(=O)N[C@H](C(=O)N[C@H](C(=O)NCC(=O)Nc4cccc(F)c4)c4cc(O)cc(O)c4-c4cc3ccc4O)[C@H](O)c3ccc(c(Cl)c3)Oc3cc2cc(c3O[C@@H]2O[C@H](CO)[C@@H](O)[C@H](O)[C@H]2O[C@H]2C[C@](C)(N)[C@H](O)[C@H](C)O2)Oc2ccc(cc2Cl)[C@H]1O
3.62

Just for reference, paper PMC6001238 is where these values come from.
